MEASUREMENT PROTOCOL: in vivo
Parameters: species or system SD rats
TEST SETTINGS: Sprague-Dawley, rat, in vivo, po, time of peak concentration of Res, rats, intragastric
MEASURED QUANTITY: Tmax

What does the data say about its Tmax? Entry: Oc1ccc(/C=C/c2cc(O)cc(O)c2)cc1 10 min

====

MEASUREMENT PROTOCOL: in vivo
Parameters: species or system SD rats
TEST SETTINGS: Sprague-Dawley, rat, in vivo, po
MEASURED QUANTITY: Cmax (ng/mL)
# value in ng/mL; strip the unit string

Return reported Cmax; argument: Oc1ccc(/C=C/c2cc(O)cc(O)c2)cc1 [Res, Resveratrol] 92.1
